Compiled notes: published Ki values involving Cannabinoid receptor 1 (Homo sapiens, UniProt P21554).
assayReadout: Ki (nM)

P = Cc1c2c(n(-c3ccc(Cl)cc3Cl)c1-c1ccc(Cl)cc1)CCN(C1CCCCC1)C2=O
Q = CC(C)(C)CC(=O)NC1CCN(c2ncnc3c2nc(-c2ccccc2Cl)n3-c2ccc(Cl)cc2)CC1
Task: Select one: P or Q . Criterion: greater recorded Ki. Returns: label corresponding to the selected item.
Result: P

I = CCCCC(=O)NC1CCN(c2ncnc3c2nc(-c2ccccc2Cl)n3-c2ccc(Cl)cc2)CC1
II = O=C(NN1CC2CCCC2C1)c1cn(-c2ccc(Cl)cc2)c(-c2ccc(Cl)cc2Cl)n1 (stereo not given)
Task: Which of these two has the smaller recorded Ki: I or II ? Returns: label corresponding to the selected item.
Result: I

* * *

pKi: −log10 of the molar value.
Compiled notes: published pKi values involving Cannabinoid receptor 1 (Homo sapiens).
assayReadout: pKi

Cc1ccc(-c2cc(CC3CCCCC3)[nH]n2)cc1S(=O)(=O)N1CCOCC1 : 5.85
CCC(COCc1ccccc1)NC(=O)c1cnc(-c2ccc(C)cc2)c(-c2ccc(C)cc2)n1 (centres undefined) : 6.69

1 = Cc1c(C(=O)NN2CCCCC2)nn(-c2ccccc2)c1-c1ccccc1
2 = O=C(NN1CCCCC1)c1cc(-c2ccccc2)n(-c2ccccc2)n1
3 = COc1cc(CNC(=O)c2nn(-c3ccc(Cl)cc3Cl)c(-n3c(C)ccc3C)c2C)c(Br)c(OC)c1OC
4 = N#Cc1ccc(C(=O)NC[C@@H]2CC[C@@H](c3ccc(Cl)cc3Cl)N(c3ccc(Cl)cc3)C2)cc1
Task: # rank by pKi, ascending (min first) Sort the labels as requested; that list is your answer.
Result: 1, 2, 3, 4

A = O=C(c1cc2c(cc1F)OC(c1ccc(F)cc1)(c1ccc(Cl)cc1Cl)O2)N1CCCCC1 (centres undefined)
B = CC(C(=O)N1c2ccccc2C(C)(c2ccc(Cl)cc2)CC1(C)C)N1C(=O)C2CCCCC2C1=O (centres undefined)
C = O=C(c1ccc2c(c1)OC(c1ccccc1)(c1ccccc1)O2)N1CCOCC1
D = O=C(NC1CCCCC1)N1CCN(C(c2ccccc2)c2ccc(Cl)cc2Cl)CC1 (centres undefined)
E = COCCOC(=O)NC1CCN(c2ncnc3c2nc(-c2ccccc2Cl)n3-c2ccc(Cl)cc2)CC1
Task: Please rank these compounds by pKi in descending order. Sort the labels as requested; that list is your answer.
Result: D, A, E, C, B

I = c1ccc2c(COc3n[nH]c4ccccc34)cccc2c1
II = O=S(=O)(NCC[C@@H]1CC[C@@H](c2ccc(Cl)cc2Cl)N(c2ccc(Cl)cc2)C1)c1cccnc1
Task: Which of these two has the smaller recorded pKi: I or II ? Returns: label corresponding to the selected item.
Result: I
(I: 5.80, II: 8.24)

* * *

Compiled notes: published pKi values involving Cannabinoid receptor 1 (Homo sapiens, UniProt P21554).
pKi: −log10 of the molar value.
assayReadout: pKi

Cc1c(C(=O)NN2CCCCC2)nn(-c2c(Cl)cc(Cl)cc2Cl)c1-n1c(C)ccc1C : 6.96
CCN(CC)c1ccc(CN(Cc2cccs2)S(=O)(=O)c2ccc(C)cc2)cc1 : 6.21

1 = NCC[C@@H]1CC[C@@H](c2ccc(Cl)cc2Cl)N(c2ccc(Cl)cc2)C1
2 = CC(=O)N1CCN(C[C@@H]2CC[C@@H](c3ccc(Cl)cc3Cl)N(c3ccc(Cl)cc3)C2)CC1
Task: Select one: 1 or 2 . Criterion: greater recorded pKi. Returns: label corresponding to the selected item.
Result: 1
(1: 7.21, 2: 6.35)

A = CSc1c(C(=O)NN2CCCC2)nc(-c2ccc(Cl)cc2Cl)n1-c1ccc(Cl)cc1
B = CCN(CC)c1ccc(CN(Cc2ccco2)S(=O)(=O)c2ccc(C)cc2)cc1
C = CC(C)CCC(=O)NC1CCN(c2ncnc3c2nc(-c2ccccc2Cl)n3-c2ccc(Cl)cc2)CC1
Task: Please rank these molecules by pKi in descending order. Sort the labels as requested; that list is your answer.
Result: C, A, B
(C: 8.57, A: 8.05, B: 6.24)

A = CCCc1c(C(=O)N[C@H]2CCCC[C@@H]2O)nc(-c2ccccc2Cl)n1-c1ccc(Cl)cc1
B = Cc1c(C(=O)NC2CCCCC2)oc2ccc(S(=O)(=O)N3CC(C)CC(C)C3)cc12 (stereo not drawn)
Task: Which of these two has the smaller recorded pKi: A or B ? Returns: label corresponding to the selected item.
Result: B
(B: 6.97, A: 8.24)

P = CCOC(=O)C(C)(C)Oc1ccc(NC(=O)c2nn(-c3ccc(Cl)cc3Cl)c(-c3ccc(Cl)cc3)c2C)cc1
Q = O=C1C(c2ccccc2)N(c2cccc(Cl)c2)C(=O)N1c1cccc(Cl)c1 (stereo not drawn)
Task: Select one: P or Q . Criterion: greater recorded pKi. Returns: label corresponding to the selected item.
Result: P
(P: 6.96, Q: 5.68)

a = Cc1c(C(=O)NN2CCCCC2)nn(-c2ccc(Cl)cc2Cl)c1-c1ccc(C#CCCOC(=O)CCCCCCCCCCN)cc1
b = Cc1ccc(NC(=O)C(C)(C(F)(F)F)C(F)(F)F)cc1S(=O)(=O)N1CCOCC1
Task: Which of these two has the smaller recorded pKi: a or b ? Returns: label corresponding to the selected item.
Result: b
(b: 6.33, a: 7.01)

* * *

Compiled notes: published Ki values involving Cannabinoid receptor 1 (Homo sapiens, UniProt P21554).
assayReadout: Ki (nM)

Below, each entry is followed by its recorded Ki result.
Cc1ccc(NC(=O)[C@@H]2C[C@@]3(C)CC[C@]2(C)O3)cc1S(=O)(=O)N1CCOCC1 : 2900
Cc1c(C(=O)NN2CC3CCCC3C2)nn(-c2ccc(Cl)cc2Cl)c1-c1ccc(Cl)cc1 (stereo not drawn) : 5
CSc1c(C(=O)NN2CCCCCC2)nn(-c2ccc(Cl)cc2Cl)c1-c1ccc(Cl)cc1 : 27
CN(CC1CC1)c1ncc(C(=O)N[C@@H]2CCCC[C@H]2O)cc1-c1ccc(Cl)cc1 : 51.1
O=S(=O)(NC[C@@H]1CC[C@@H](c2ccc(Cl)cc2Cl)N(c2ccc(Cl)cc2)C1)c1cccc2ccccc12 : 2.3
O=C(NC1CCN(c2ncnc3c2nc(-c2ccccc2Cl)n3-c2ccc(Cl)cc2)CC1)c1ccc(F)cc1F : 2

a = O=S(=O)(C[C@@H]1CC[C@@H](c2ccc(Cl)cc2Cl)N(c2ccc(Cl)cc2)C1)NC1CCCCC1
b = Cc1c(C(=O)NCCc2ccc(F)cc2)nn(-c2ccc(Cl)cc2Cl)c1-c1ccc(Cl)cc1
Task: Select one: a or b . Criterion: greater recorded Ki. Returns: label corresponding to the selected item.
Result: b
(b: 91 nM, a: 35 nM)

* * *

Compiled notes: published Ki values involving Cannabinoid receptor 1 (Homo sapiens).
assayReadout: Ki (nM)

Below, each entry is followed by its recorded Ki result.
Nc1ccc(C(C(=O)NCCC(c2ccccc2)c2ccccc2)c2ccccc2)cc1 (stereo not given) : 900
Cc1c(C(=O)NN2CCOCC2)nc(-c2ccc(Cl)cc2Cl)n1-c1ccc(Cl)cc1 : 197
COc1ccc(CCNC(=O)c2nn(-c3ccc(F)cc3F)c(-n3cccc3)c2C)cc1Cl : 948

I = N#Cc1ccc(Cn2nc3c(-c4ccncc4)c(-c4ccc(Cl)cc4)c(=O)n(Cc4ccc(C#N)cc4)n3c2=O)cc1
II = CS/C(=N\S(=O)(=O)c1ccc(C(F)(F)F)cc1)N1CC(c2ccccc2)C(c2ccc(Cl)cc2)=N1 (stereo not given)
Task: Select one: I or II . Criterion: greater recorded Ki. Returns: label corresponding to the selected item.
Result: II
(II: 16.6 nM, I: 4.2 nM)

* * *

Compiled notes: published pKi values involving UniProt:P21554.
pKi: −log10 of the molar value.
assayReadout: pKi

Below, each entry is followed by its recorded pKi result.
O=C(NC1CCCCC1)N1CCN(C(c2ccc(Cl)cc2)c2ccc(Cl)cc2Cl)CC1 (stereo unspecified) : 9.64
O=C(NC1CCCCC1)N1CCN(C(c2ccc(F)cc2)c2ccc(Cl)cc2Cl)CC1 (stereo unspecified) : 8.60
O=C(NCCCc1ccccc1)C(c1ccccc1)c1ccc(Br)cc1 (stereo unspecified) : 5.72
CCCCNC(=O)NC1CCN(c2ncnc3c2nc(-c2ccccc2Cl)n3-c2ccc(Cl)cc2)CC1 : 7.60
Cc1c(C(=O)NC2CCCCCC2)nc(-c2ccc(Cl)cc2Cl)n1-c1ccc(Cl)cc1 : 7.46
O=C1C(c2ccc(Br)cc2)N(c2ccccc2)C(=O)N1c1ccccc1 (stereo unspecified) : 5.40
COc1ccc(-c2c(C#N)c(C(=O)NN3CCCCC3)nn2-c2ccccc2[125I])cc1 : 8.47
COc1ccc(C2C(C(=O)Nc3cccc(C)n3)c3ccccc3C(=O)N2C2CCCCC2)cc1 (stereo unspecified) : 5.62

1 = CCN(CC)c1ccc(CN(C2CCCC2)S(=O)(=O)c2ccc(C)cc2)cc1
2 = O=C(N[C@@H]1CCCC[C@H]1O)c1cn(-c2ccc(Cl)cc2)c(-c2ccccc2Cl)n1
Task: Which of these two has the smaller recorded pKi: 1 or 2 ? Returns: label corresponding to the selected item.
Result: 1

A = C/N=C(\NS(=O)(=O)c1c(C)cc(C)cc1C)N1CC(c2ccccc2)C(c2ccc(Cl)cc2)=N1 (stereo unspecified)
B = CCN(CC)c1ccc(CN(Cc2ccco2)S(=O)(=O)c2ccc(OC)cc2)cc1
C = COc1ccc(-c2c(C#N)c(C(=O)NN3CCCCC3)nn2-c2ccccc2Br)cc1
Task: Please rank these molecules by pKi in descending order. Sort the labels as requested; that list is your answer.
Result: C, A, B
